Entry source: patent US20230218710A1

Items are presented alongside their recorded Emax at 10 µM.
TARGET OF ASSAY: Apelin Receptor (APJ) (Homo sapiens, UniProt P35414)
Construct: host or cells: CHO-K1 AGTRL1 Gi cells
Sequence (P35414 1-380): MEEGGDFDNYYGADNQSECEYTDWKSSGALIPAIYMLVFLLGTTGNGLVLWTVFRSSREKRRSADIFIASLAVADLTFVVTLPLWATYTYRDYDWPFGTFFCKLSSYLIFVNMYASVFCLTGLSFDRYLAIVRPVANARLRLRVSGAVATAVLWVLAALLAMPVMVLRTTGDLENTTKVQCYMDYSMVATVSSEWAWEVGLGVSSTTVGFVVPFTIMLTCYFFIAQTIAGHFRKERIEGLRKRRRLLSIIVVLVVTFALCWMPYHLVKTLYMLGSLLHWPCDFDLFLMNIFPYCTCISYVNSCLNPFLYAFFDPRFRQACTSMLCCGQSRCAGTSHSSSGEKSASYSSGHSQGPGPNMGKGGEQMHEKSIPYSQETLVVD
ASSAY PROTOCOL: cell-based
CONDITION NOTES: CHO-K1, 0.5 h, read-out: Percent of Pyr-Apelin-13 Control Activity
Method: Peptides were initially prepared as 30 mM stock in DMSO and diluted to 3 mM in H2O or directly as 3 mM stock in H2O; used at a final concentration of 10 μM (0-0.1% DMSO).
Square brackets hold non-standard residues; d marks the D form. Peptide text beside a SMILES is read from it.
Reply with just the number (in %).

MOLECULE	UNIT SYMBOL	Emax at 10 µM
COCCOCCOCCOCCOCCOCCOCCOCCOCCOCCOCCOCCC(=O)NCCCC[C@H](NC(=O)[C@@H](C)NC(=O)CNC(=O)[C@H](CS)NC(=O)[C@H](CC(C)C)NC(=O)[C@H](CS)NC(=O)[C@H](CCC(N)=O)NC(=O)[C@H](Cc1ccccc1)NC(=O)[C@@H](NC(=O)[C@H](CCSC)NC(=O)CNC(=O)[C@H](CCSC)NC(=O)[C@H](CCSC)NC(=O)[C@H](CCCNC(=N)N)NC(=O)[C@@H](N)CCCNC(=N)N)C(C)C)C(=O)O	%	34
CSCC[C@H](NC(=O)CNC(=O)[C@H](CCSC)NC(=O)[C@H](CCSC)NC(=O)[C@H](CCCNC(=N)N)NC(=O)[C@@H](N)CCCNC(=N)N)C(=O)N[C@H](C(=O)N[C@@H](C)C(=O)N[C@@H](CCC(N)=O)C(=O)N[C@@H](CS)C(=O)N[C@@H](CC(C)C)C(=O)N[C@@H](CCC(=O)O)C(=O)NCC(=O)N[C@H](C)C(=O)O)C(C)C [compound 30] (H-RRMMGMVAQCLEG[dA]-OH; N-terminus and C-terminus assumed)	%	31
CSCC[C@H](NC(=O)[C@H](CCCNC(=N)N)NC(=O)[C@@H](N)CCCNC(=N)N)C(=O)N[C@@H](CCC(=O)O)C(=O)N[C@H](C(=O)N[C@@H](Cc1ccc(O)cc1)C(=O)N[C@@H](CCC(N)=O)C(=O)N[C@@H](CS)C(=O)N[C@@H](CC(C)C)C(=O)N[C@@H](CS)C(=O)NCC(=O)N[C@H](C)C(=O)O)C(C)C [compound 31] (H-RRMEVYQCLCG[dA]-OH; N-terminus and C-terminus assumed)	%	2

Enquiry: Read the entry COCCOCCOCCOCCOCCOCCOCCOCCOCCOCCOCCOCCC(=O)N[C@@H](CCCCN)C(=O)N[C@@H](CCCNC(=N)N)C(=O)N[C@@H](CCCNC(=N)N)C(=O)N[C@@H](CC(C)C)C(=O)N[C@@H](CC(C)C)C(=O)NCC(=O)N[C@@H](CC(C)C)C(=O)N[C@H](C(=O)N[C@@H](Cc1ccccc1)C(=O)N[C@@H](CCC(N)=O)C(=O)N[C@@H](CO)C(=O)N[C@@H](CC(C)C)C(=O)N[C@@H](CS)C(=O)NCC(=O)N[C@H](C)C(=O)O)C(C)C and write its reported Emax at 10 µM.
Return: 53

Enquiry: Read the entry COCCOCCOCCOCCOCCOCCOCCOCCOCCOCCOCCOCCC(=O)N[C@@H](CCCCN)C(=O)N[C@@H](CCCNC(=N)N)C(=O)N[C@@H](CCCNC(=N)N)C(=O)N[C@@H](CCSC)C(=O)N[C@@H](CCSC)C(=O)NCC(=O)N[C@@H](CCSC)C(=O)N[C@H](C(=O)N[C@@H](Cc1ccccc1)C(=O)N[C@@H](CCC(N)=O)C(=O)N[C@@H](CS)C(=O)N[C@@H](CC(C)C)C(=O)N[C@@H](CS)C(=O)NCC(=O)N[C@H](C)C(=O)O)C(C)C and write its reported Emax at 10 µM.
Return: 37
